# experimental.conditions: in ethyl acetate, 278.15 K
experimental.readout: solubility (mole fraction)

Request: GET /values?readout=solubility (mole fraction)&item= O=c1[nH]c(=O)n(C2CCCO2)cc1F (stereo unspecified)
Response: 0.00718

----------
# experimental.conditions: in isopropanol, 278.15 K
experimental.readout: solubility (mole fraction)

Request: GET /values?readout=solubility (mole fraction)&item= O=c1[nH]c(=O)n(C2CCCO2)cc1F (stereo unspecified)
Response: 0.00109

----------
# experimental.conditions: in acetone, 273.15 K
experimental.readout: solubility (mole fraction)
I only need the number, thanks.

Request: GET /values?readout=solubility (mole fraction)&item= O=c1[nH]c(=O)n(C2CCCO2)cc1F (stereo unspecified)
Response: 0.00932
